Recorded Activity, one value per entry.
# assayed-system: Histone deacetylase 8 (Homo sapiens)
# Sequence (whole entry): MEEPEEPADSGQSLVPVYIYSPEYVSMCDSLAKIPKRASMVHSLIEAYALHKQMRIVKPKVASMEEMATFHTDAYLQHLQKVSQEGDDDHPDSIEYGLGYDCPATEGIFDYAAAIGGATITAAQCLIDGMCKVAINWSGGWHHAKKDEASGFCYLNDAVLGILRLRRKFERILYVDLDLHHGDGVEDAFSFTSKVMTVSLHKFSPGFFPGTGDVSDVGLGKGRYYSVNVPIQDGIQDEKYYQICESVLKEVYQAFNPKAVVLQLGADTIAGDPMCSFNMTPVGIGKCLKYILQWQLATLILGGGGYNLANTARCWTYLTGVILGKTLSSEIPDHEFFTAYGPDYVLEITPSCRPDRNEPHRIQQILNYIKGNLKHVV
# experiment-summary: Inhibition of recombinant human N-terminal His6-SUMO-tagged C-terminal SII-tagged HDAC8 expressed in Escherichia coli (BL21) DE3 pLysS cells assessed as residual activity at 50 uM using BocLys(trifluoroacetyl)-AMC as substrate incubated for 30 mins by fluorescence assay relative to control

                                   compound  observed_value
0  O=C1NC(=O)/C(=C\c2ccc(OCC(=O)N3N=C(c4ccccc4)CC3c3ccccc3)cc2)S1 (centres undefined)             39%
1  O=C1NC(=O)/C(=C\c2ccc(OCC(=O)N3N=C(c4ccccc4)CC3c3ccc(C(F)(F)F)cc3)cc2)S1 (centres undefined)            8.2%

Measured Activity, O=C1NC(=O)/C(=C\c2ccc(OCC(=O)N3N=C(c4ccc(F)cc4F)CC3c3ccco3)cc2)S1 (centres undefined) : 100%

Per the records, this compound ( Cc1ccc(C2CC(c3ccccc3)=NN2C(=O)COc2ccc(/C=C3/SC(=O)NC3=O)cc2)cc1 (centres undefined) ) has Activity equal to 36%
